tested on: DERL-7 (IL-2 2.5 ng/mL); assay: percent inhibition of viability; higher = more inhibition; settings: 72 h; 100 nM;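 further: normalised to DMSO-only wells as negative and benzethonium chloride as positive control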
measured_property: percent inhibition of viability (%)
Numbers only here, please. The scale is %.

See these solved cases before continuing.
- compound: "O=P1(NCCCl)OCCCN1CCCl (stereo unspecified) [Ifosfamide] (max concentration tested 10000 nM)"
  percent inhibition of viability (%): -1.33
- compound: "C[C@]12C=CC(=O)C=C1CC[C@@H]1[C@@H]2[C@@H](O)C[C@@]2(C)[C@H]1CC[C@]2(O)C(=O)CO [Prednisolone] (max concentration tested 10000 nM)"
  percent inhibition of viability (%): 70
- compound: "CC[C@]1(O)C[C@H]2CN(CCc3c([nH]c4ccccc34)[C@@](C(=O)OC)(c3cc4c(cc3OC)N(C=O)[C@H]3[C@@](O)(C(=O)OC)[C@H](OC(C)=O)[C@]5(CC)C=CCN6CC[C@]43[C@@H]65)C2)C1 [Vincristine] (max concentration tested 1000 nM)"
  percent inhibition of viability (%): 100

Query block: For CC(C)NC[C@@H](C(=O)N1CCN(c2ncnc3c2[C@H](C)C[C@H]3O)CC1)c1ccc(Cl)cc1 [GDC-0068] (max concentration tested 10000 nM) , write its percent inhibition of viability.
Result block: -3.9

Query block: Find the measured percent inhibition of viability of NC(=O)c1cccc(-c2cccc(OC(=O)NC3CCCCC3)c2)c1 [URB597] (max concentration tested 1000 nM) and report it.
Result block: 5.02

Query block: Quickly give me recorded percent inhibition of viability for O=C(O)CCCc1ccc(N(CCCl)CCCl)cc1 [Chlorambucil] (max concentration tested 10000 nM)
Result block: -1.57

Query block: Supply measured percent inhibition of viability of CC[C@H](CC#N)OC(=O)N[C@@H](C)c1cccc(NC(=O)Nc2ccc(-c3cnco3)c(OC)c2)c1 [AVN944] (max concentration tested 10000 nM) in your reply.
Result block: 46.2
